Source listed as the RNAGym collection of RNA variant scans (doi:10.1073/pnas.2313332121).

B1: TPR t1 (parent)
chain: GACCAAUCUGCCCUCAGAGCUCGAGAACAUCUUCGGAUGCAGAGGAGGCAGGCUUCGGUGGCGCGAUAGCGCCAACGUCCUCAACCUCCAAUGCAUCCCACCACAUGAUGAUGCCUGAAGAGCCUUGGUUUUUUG

Variants of: B1
Experiment Notes: polymerase ribozyme fitness, log enrichment relative to wild type (log ratio); higher = more active; in vitro selection for triplet polymerase activity
Reported Metric: polymerase ribozyme fitness (log ratio)
No unit in the answer, only the number.

As a guide, the following entries are already answered.
Sequence Data	polymerase ribozyme fitness (log ratio)
GACCAAUCUGCCCUCAGAGAUCGAGAACAUCUUCGGAUGCAGAUGAGGCAGGCUUCGGUGGCGCGAUAGCGCCAACGUCCUCAACCUCCAAUGCAUCCCACCACAUGAUGAUGCCUGAAGAGCCUUGGUUUUUUG [C20A G44U]	-4.1
GACCAGUCUACCCUCAGAGCUCGAGAACAUCUUCGGAUGCAGAGGAGGCAGGCUUCGGUGGCGCGAUAGCGCCAACGUCCUCAACCUCCAAUGCAUCCCACCACAUGAUGAUGCCUGAAGAGCCUUGGUUUUUUG [A6G G10A]	0.127
GACCAAUCUGCCCUCAGAGCUCGAGAACAUCUUCGGAUACAGAGGAGGCAGGCUUCGGUGACGCGAUAGCGCCAACGUCCUCAACCUCAAAUGCAUCCCACCACAUGAUGAUGCCUGAACAGCCUUGGUUUUUUG [G39A G61A C89A G120C]	-1.19
GACCAAUCUGCCCUCAGAGCUCGAGAACAUCUUCGGAUGCAGCGGAGUCAGGCUUCGGUGGAGCGUUAGCGCCAACGUCCUCAACCUCCAAUGCAUCCCACCACAUGAUGAUGCCUGAAGAGACUUGGUUUUUUG [A43C G48U C62A A66U C123A]	-6.8
GACCAAUCUGCCCUCAGAGCUCGAGAACAUCUUCGGAUGCAGAGGAGGCAGGCUUCGGUGGCGCGAUAGCCCCGACGUCCUCAACCUCCACUCCAUCCGACCACUUGAUGGUGCCUGAAGAGCCUUGGUUUUUUG [G71C A74G A91C G93C C99G A105U A111G]	-6.99

// moving on: another record for polymerase ribozyme fitness (log ratio)
Exercise: Request the reported polymerase ribozyme fitness (log ratio) associated with GACCACUCUGACCUCAGAGCUCGAGAACAUCUUCGGAUGCAGAGGAGGCAGGCUUCGGUGGCGCGAUAGCGCCAACGUCCUCAAUCUCCAAUGCAUCCCACCACAUGAUGAGGCCUGAAGAGCCUUGGUUUUUUG [A6C C11A C85U U112G]
Solution: -2.47
